Would you kindly list protein stability index for each of these variants?
B1: C9orf25 (parent)
chain: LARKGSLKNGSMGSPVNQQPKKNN

variants of: B1; test: protein stability index of a GFP-peptide fusion (GPS, HEK-293T) (PSI 1-6); higher = more stable; details: c terminus: a fixed tail appended;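 note: lentivirally expressed fusions sorted by FACS into six bins by GFP to DsRed ratio, PSI derived from sequencing read proportions per bin multiplied by bin number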
Numbers only.

Answered cases to consult:
G13P : 4.33
K21W : 2.95
K21V : 4.32

# batch size: 2; output protein stability index per entry
1. P15R
2. K8G

result:
1: 3.8; 2: 5
